meta.source: the Human Domainome abundance scans (Beltran et al. 2025)

Provide the recorded abundance fitness for the entries that follow.
B1: POU domain, class 6, transcription factor 2, residues 609 to 663; numbered along this chain, P78424 (parent)
chain: KRRTSFTPQALEILNAHFEKNTHPSGQEMTEIAEKLNYDREVVRVWFCNKRQALK

Variants of: B1
ASSAY NAME: abundance fitness (aPCA) (normalised: wild type 0, dead -1); higher = more abundant; growth selection in yeast, the domain comes from the species named
CONDITION INFO: Homo sapiens

IN: // query abundance fitness value for entry R44K
OUT: -0.195

IN: // query abundance fitness value for entry N37Y
OUT: 0.127

IN: // query abundance fitness value for entry P24Y
OUT: -0.805

IN: // query abundance fitness value for entry F18S
OUT: -0.593

IN: // query abundance fitness value for entry E41Q
OUT: -0.216

IN: // query abundance fitness value for entry G26V
OUT: 0.073

IN: // query abundance fitness value for entry E28C
OUT: -0.324

IN: // query abundance fitness value for entry I13C
OUT: -0.113

IN: // query abundance fitness value for entry R51A
OUT: -0.094

IN: // query abundance fitness value for entry Y38N
OUT: -0.405

IN: // query abundance fitness value for entry F18Y
OUT: 0.107

IN: // query abundance fitness value for entry R44E
OUT: 0.027

IN: // query abundance fitness value for entry E41Y
OUT: -0.321

IN: // query abundance fitness value for entry T22Q
OUT: 0.084

IN: // query abundance fitness value for entry F47W
OUT: -0.168

IN: // query abundance fitness value for entry R3W
OUT: -0.265

IN: // query abundance fitness value for entry H17W
OUT: 0.011

IN: // query abundance fitness value for entry T22D
OUT: -0.037

IN: // query abundance fitness value for entry Y38H
OUT: -0.176

IN: // query abundance fitness value for entry F6C
OUT: -0.15

IN: // query abundance fitness value for entry K50L
OUT: -0.834

IN: // query abundance fitness value for entry A10S
OUT: -0.262

IN: // query abundance fitness value for entry E41M
OUT: -0.42

IN: // query abundance fitness value for entry R51E
OUT: -0.337

IN: // query abundance fitness value for entry L11P
OUT: -1.01

IN: // query abundance fitness value for entry R40E
OUT: 0.017

IN: // query abundance fitness value for entry Q27I
OUT: 0.091

IN: // query abundance fitness value for entry T30E
OUT: -0.259
